Hey, just so you know, these numbers are from patent US20230279077A1.

target.or.test.system: HSV-1 glycoprotein D-Fc fusion protein (HSV-1) (UniProt Q69091)
experiment: SPR Biacore T200, single cycle kinetics, G-Fc captured on anti-human IgG, 1:1 fit
readout: koff (s⁻¹)
Return type: number; implicit unit s⁻¹.

// solved cases for koff follow
3-G-77_M13R (VHH, not shown: small tags and cut ends) VHH: QVQLVESGGGLVQPGGSLRLSCSASGFSFAFKNYAMSWVRQAPGKGLEWVSTMSGGGGDTKYADSVKGRFTISRDNNKNTVYLQMNSLKPEDTAVYYCAKGWITNNQFAFAPRGQGTQVTVSS
0.00093
3-G-75_M13R (VHH, not shown: small tags and cut ends) VHH: QVKLEESGGGVVQDGGSLRLSCAAIEQFFTTNAMAWFRQAPGKERELVAATDWSGQSTSYADSVKGRFTISRDTAKNVMYLQMNILHTEDTAVYYCARAPGRVLLTSDLESYTIWGQGTQVTVSS
0.0139
3-G-41_M13R (VHH, not shown: small tags and cut ends) VHH: QVQLVESGGGLVQPGGSLRLSCAASGFSFSFKNYAMSWVRQAPGKGLEWVSTMSGGGGDIKYADSVKGRFTISRDNAKNTLYLQMNSLKPEDTAVYYCAKGWITTDQFTNTPRGQGTQVTVSS
0.000274

As a next step, examine the binder that follows.
koff measured on 3-G-44_M13R (VHH, not shown: small tags and cut ends) VHH: QVQLVESGGGLVQPGGSLRLSCTASGFSFAFKNYAMSWVRQAPGKGLEWVSTMSGGGGDTKYADSVKGRFTISRDNAKNAVYLQMNSLKPEDTAVYYCAKGWITTDQFATAPRGQGTQVTVSS = 0.000281
